B1: HDV Ribozyme (parent)
chain: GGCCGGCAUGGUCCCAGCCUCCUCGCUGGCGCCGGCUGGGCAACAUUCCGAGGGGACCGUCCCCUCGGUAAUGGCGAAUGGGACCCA

# Variants of: B1
# PROCEDURE SUMMARY: self-cleavage, relative activity (ratio to wild type); higher = more cleavage; co-transcriptional
MEASUREMENT KIND: self-cleavage

Please fill in: self-cleavage reported for U9A A16U = 1.19

self-cleavage for G81A C84G is 0.237

Per the record, A83U C84A has self-cleavage of 0.813

What the record says about U72G G82C : self-cleavage is 0.453

Entry C14G G73A — recorded self-cleavage = 0.222

self-cleavage in this record for U37G C84G : 0

Reported self-cleavage ( C22U C44G ) = 0.095

Please fill in: self-cleavage reported for G5U G73U = 0.122

Entry G38U A43C , self-cleavage reported as 0.0811

Record A56U C57U . Reported self-cleavage: 0.886

Please fill in: self-cleavage reported for C3G G39U = 0.0989

Per the records, this variant ( C14U C36U ) has self-cleavage equal to 0.96

According to the records, this variant U20G C26U displays self-cleavage of 0.256

The reported value for G59U G82U in terms of self-cleavage is 0.554

According to the records, this variant G25A C32A displays self-cleavage of 0.0848

Record C15A A56G . Reported self-cleavage: 0.587

GET /value?item= G40U U47A &field=self-cleavage returns 0.427

Memo: C64A C86G , reported self-cleavage: 0.923

Entry A42G A71C ; self-cleavage = 0.151

In plain terms, C3A G31C has a documented self-cleavage of 0.0166

The variant listed as U37C G52C shows self-cleavage equal to 0.856

# variant A42U U79A ; its self-cleavage = 0.145

Lab book: self-cleavage of G55C C86G noted as 1.09

What the record says about G55C U60C : self-cleavage is 1.07

Record U9C C64G , field self-cleavage: 0.95

A56U G59A yielded self-cleavage of 0.926

Kindly note the recorded self-cleavage for C13U C49A , which is 0.727

self-cleavage reading for G55A C62U : 1.03

Kindly note the recorded self-cleavage for C14A U20C , which is 0.111

The variant listed as C4A C62G has a reported self-cleavage of 0

The recorded self-cleavage for entry A43U C63G equals 0.394

Reported self-cleavage for C18G C85U was 0.095

Value of measured self-cleavage for the entry U46A A71U : 0.95

The recorded self-cleavage for U23C G59A is 1.19

Per the record, C15G G31A has self-cleavage of 0.138

self-cleavage measured on C13U C64U = 0.554

Notebook: C48G U79A , self-cleavage read as 0.911

For C48U U60C the variant record lists self-cleavage as 1.27

Measured self-cleavage of C3G G68U : 0.383

Entry under test: C15G G17U . Its self-cleavage was 0.243

Entry under test: G40U A56G . Its self-cleavage was 0.677

Entry G5U A43U — recorded self-cleavage = 0.0978

Lab note: measured self-cleavage of G53C C85A was 0.955

Record summary for G6U C26U : reported self-cleavage = 0.892

The variant listed as G52A U65A has a reported self-cleavage of 0.954

The measured self-cleavage associated with A8G C18A reads 0.0875

# self-cleavage of A8U C85U = 1.09

self-cleavage in this record for U27G : 0.848

self-cleavage reading for A8G G29U : 0

// self-cleavage lookup, variant = C64U C85U , result: 1.08

In plain terms, C58A G68A has a documented self-cleavage of 0.95

Reported self-cleavage of C15U A87C : 1.03

The variant listed as G39C G53A shows self-cleavage equal to 0.308

Quick note, self-cleavage for C32A C63U landed at 0.332

Per the record, G40A G53U has self-cleavage of 0.823

# self-cleavage (variant: U23C C30A ) is 0.369

GET /value?item= A16U C85A &field=self-cleavage returns 1.1

For reference, reported self-cleavage for C7G G73U stands at 0.0831

// sample C15A A16G , its self-cleavage was 0.35

So, G1U A71G ? Its self-cleavage was 0.429

Per the records, this variant ( C24A G68U ) has self-cleavage equal to 0.776

Sample C14G C18U ; self-cleavage observed: 0.115

Documented self-cleavage of U79A G81A : 0.0773

Value of measured self-cleavage for the entry G50C C84A : 0.743

Sample G76A C86U ; self-cleavage observed: 0.92

Quick note, self-cleavage for G1C C86U landed at 0.262

self-cleavage reading for A78G U79C : 0.225

Value of measured self-cleavage for the entry C48A U79G : 0.982

Kindly note the recorded self-cleavage for G2U A51G , which is 0.0683

Entry under test: U20A G73U . Its self-cleavage was 0.0354

The reported value for G25U G80U in terms of self-cleavage is 0.115

Lookup result for U9C A83C ; measured self-cleavage: 0.475

# self-cleavage of A8G C44G = 0.499

GET /value?item= G11C A78G &field=self-cleavage returns 0.229

Short answer for G5U G6C : self-cleavage was 0

What the record says about G34C A71G : self-cleavage is 0

The recorded self-cleavage for entry U20C G28U equals 0.119

response.value for C18G G29C (field: self-cleavage) = 0.939

// field: self-cleavage; key: G39U G68A ; value = 0.841

Note to self: self-cleavage recorded for A45U A87U was 0.734

The variant identified as U46A A83U registered its self-cleavage at 0.277

For record C63U A77U the listed self-cleavage is 0.698

So, U72G A83C ? Its self-cleavage was 0.332

Consider G82C A87U . Its measured self-cleavage is 0.247

Given item G5C C66G , the value recorded as its self-cleavage is 0.151

Source: the RNAGym collection of RNA variant scans (doi:10.7554/elife.80360)
